From: patent US10919902B2

# key: entry, value: pIC50
- studySystem: recombinant human HDACs (Homo sapiens)
- procedureSummary: HDAC enzymatic assay
- Type: biochemical
- conditionSet: 5 nM HDAC enzyme, 5 h pre-incubation, 17 h reaction at 25° C.; isoform not given; read-out: IC50
pIC50: −log10 of the molar value.

Nc1ccc(-c2ccc(F)cc2)nc1NC(=O)N1CC2CC(N3CCC3)CC2C1 (stereo not drawn) [Compound 143] : 5.30 to 6.30
CN1CCc2sc(C(=O)Nc3nc(-c4ccc(F)cc4)ccc3N)nc2C1 [Compound 153] : 6.30 to 7.00

State the recorded pIC50 for this entry: Nc1cn(-c2ccccc2)nc1NC(=O)N1Cc2ccc(CO)cc2C1 [Compound 350]
5.30 to 6.30

Item: CN1CCN(c2ccc3c(c2)CN(C(=O)Nc2nn(-c4ccccc4)cc2N)C3)CC1 [Compound 352]
5.30 to 6.30

Item: CN1CC(Cn2cc3c(n2)CN(C(=O)Nc2nc(-c4ccc(F)cc4)ccc2N)C3)C1 [Compound 245]
6.30 to 7.00

Item: Cc1cnc(C(=O)Nc2nn(-c3ccccc3)cc2N)s1 [Compound 126]
5.30 to 6.30

Item: CN(C1COC1)[C@H]1[C@@H]2CN(C(=O)Nc3nc(-c4ccc(F)cc4)ccc3N)C[C@@H]21 [Compound 262]
< 5.30

Item: COCC1CCN(C(=O)Nc2nc(-c3ccc(F)cc3)ccc2N)C1 (stereo not drawn) [Compound 389]
< 5.30

Item: CN1CC(CC(=O)Nc2nc(-c3ccc(F)cc3)ccc2N)C1 [Compound 376]
< 5.30

----------
# key: entry, value: IC50
- studySystem: recombinant human HDACs (Homo sapiens)
- procedureSummary: HDAC enzymatic assay
- Format: biochemical
- conditionSet: 5 nM HDAC enzyme, 5 h pre-incubation, 17 h reaction at 25° C.; isoform not given; read-out: IC50
- Procedure: All recombinant human HDACs were purchased from BPS Bioscience. The substrate, FAM-TSRHK(AC)KL-CONH, was synthesized at NanoSyn. […] Change in the relative fluorescence intensity of the substrate and product peaks reflects enzyme activity. Reaction progress was determined as the product to sum ratio (PSR):P/(S+P), where P is the peak height of the product peptide and S is the peak height of the substrate peptide. […] IC50 values were calculated using a 4 Parameter Logistic Model.

Nc1ccc(-c2ccc(F)cc2)nc1NC(=O)N1C[C@@H]2[C@@H](CO)[C@@H]2C1 : 0.5 to 5 µM
CN1CCN(Cc2ccc3c(c2)CN(C(=O)Nc2nn(-c4ccccc4)cc2N)C3)CC1 : 0.5 to 5 µM
CC(=O)N1CCN(CC(=O)Nc2nc(-c3ccccc3)ccc2N)CC1 : > 5 µM
Nc1ccc(-n2cccn2)nc1NC(=O)N1CC2CN(Cc3ccccc3F)CC2C1 (centres unmarked) : > 5 µM
CN1CC(CN2CC3CC(C(=O)Nc4nc(-c5ccc(F)cc5)ccc4N)CC3C2)C1 (centres unmarked) : 0.5 to 5 µM

State the recorded IC50 for this entry: CN1CCN(Cc2ccc3c(c2)CN(C(=O)Nc2nc(-c4ccc(F)cc4)ccc2N)C3)CC1
0.1 to 0.5 µM

Item: Nc1ccc(-c2ccc(F)cc2)nc1NC(=O)N1CC2CC(NC3COC3)CC2C1 (centres unmarked)
0.5 to 5 µM

Item: Nc1ccc(-n2cccn2)nc1NC(=O)N1Cc2ccncc2C1
0.5 to 5 µM

Item: Nc1ccc(-c2ccccc2)nc1NC(=O)C1CCN(C2COC2)CC1
> 5 µM

Item: Nc1ccc(-c2ccco2)nc1NC(=O)C1CN(Cc2ccccc2)C1
> 5 µM

Item: COc1cc2c(cn1)CN(C(=O)Nc1nc(-c3ccc(F)cc3)ccc1N)C2
0.1 to 0.5 µM
